Just for reference, patent US20250313574A1 is where these values come from.

Quick reference: pEC50 of the listed items.
# Tgt: Recombinant human CD33 protein (Homo sapiens (Human), UniProt P20138)
# Sequence (P20138 18-259): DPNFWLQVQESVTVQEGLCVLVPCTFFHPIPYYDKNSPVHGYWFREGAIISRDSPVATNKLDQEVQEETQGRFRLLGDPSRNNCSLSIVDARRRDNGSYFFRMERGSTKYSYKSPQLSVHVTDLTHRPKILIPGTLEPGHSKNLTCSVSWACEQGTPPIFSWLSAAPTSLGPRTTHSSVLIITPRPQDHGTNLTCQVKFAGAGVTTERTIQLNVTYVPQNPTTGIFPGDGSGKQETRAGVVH
# Assay Remarks: CD33 competitive binding assay for HTS drug screen (fluorescent multivalent sialic acid probe)
pEC50 field: float, defined as -log10 of concentration (mol/L).

Below are worked cases with known answers.
Molecule: CC(=O)N[C@H]1[C@H]([C@H](O)[C@H](O)CNC(=O)c2cc(C)c(O)c(C)c2)O[C@@](C/C=C/C2(O)CCN(C(=O)OC(C)(C)C)C2)(C(=O)O)C[C@@H]1O (stereo partly drawn) [A-197]
pEC50: 6.74
--
Molecule: CC(=O)N[C@H]1[C@H]([C@H](O)[C@H](O)CNC(=O)c2cc(C)c(O)c(C)c2)O[C@@](CCN2CCOC[C@@]23CCN(C(=O)CC(C)(C)C)C3)(C(=O)O)C[C@@H]1O [A-072]
pEC50: 6.64

Turning to the following molecule.
Enquiry: Form field: reported pEC50 of CC(=O)N[C@H]1[C@H]([C@H](O)[C@H](O)CNC(=O)c2ccc3cn[nH]c3c2)O[C@@](CCN2CCOC[C@@]23CCN(C(=O)OC(C)(C)C)C3)(C(=O)O)C[C@@H]1O [A-151]
Return: 6.69
